tested on: 786-0; assay: NCI tumour cell line growth inhibition, 48 h
Activity calls are given as the source filed them. Cut-off read from the data, not from the text of the source: active = GI50 up to about 1.1 µM and inactive = higher. Starred links: 1 amine or outer side, 2 acyl side, 3 side chain; linkers in the order of their positions; H or OH if unused. Non-standard residues stand in square brackets, D forms with d. Residues, ends and D or L forms follow the SMILES beside them. X4 = C[C@H](N[*:1])C(=O)C(C)(C)C(=O)[*:2]; Hmpa(2S,3S) = CC[C@H](C)[C@H](O)C(=O)O; NMeY = CN[C@@H](Cc1ccc(O)cc1)C(=O)O; NMeL = CN[C@@H](CC(C)C)C(=O)O; NMeV = CN[C@H](C(=O)O)C(C)C; βAla = NCCC(=O)O
Outcomes: 1 (yes) for active, 0 (no) for inactive

{"columns": ["compound", "category-label"],
 "data": [
  ["Cc1c(-c2coc(-c3ccccc3)n2)c(=O)n(-c2ccccc2)n1C", "0 (no)"],
  ["O=c1c2sc(=S)n(-c3ccc(F)cc3)c2ncn1/N=C/c1ccc(F)cc1F", "0 (no)"],
  ["COc1cc(C(=O)Oc2c(C#N)sc3c2c(=O)n(-c2ccccc2)c(=S)n3-c2ccccc2)cc(OC)c1OC", "0 (no)"],
  ["CN(C)S(=O)(=O)c1nc(Cl)c2nc[nH]c2n1", "0 (no)"],
  ["NC(=S)SC1=NC(=O)C2(NN1)c1ccccc1-c1ccccc12", "0 (no)"],
  ["CCN(CCCl)CCNc1c2ccccc2nc2ccc(OC)cc12", "1 (yes)"],
  ["Cc1ccc(S(=O)(=O)NC(=O)Nc2ccc(C(=O)O)c(O)c2)cc1", "0 (no)"],
  ["COc1cc2c(cc1OC)C1(c3ccc(Cl)cc3)ON=C(c3ccccc3)N1CS2 (stereo not given)", "0 (no)"],
  ["COc1ccccc1N1C(=O)CC(=O)N(C(=O)CCCCCCCCC(=O)N2C(=O)CC(=O)N(c3ccccc3OC)C2=S)C1=S", "0 (no)"],
  ["CC[C@H](C)[C@@H]1OC(=O)CCNC(=O)[C@@H](C)NC(=O)C(C)(C)C(=O)[C@H](C)NC(=O)[C@H](Cc2ccc(OC)cc2)N(C)C(=O)[C@H](C(C)C)N(C)C(=O)CNC(=O)[C@H](CC(C)C)N(C)C(=O)CNC1=O (cyclo(G[NMeL]G[NMeV][NMeY](Me)[X4][dA][βAla][Hmpa(2S,3S)]))", "1 (yes)"],
  ["CCOC1CC2OC(=O)C1C=C2C(=O)OC (stereo not given)", "0 (no)"],
  ["COC(=O)C1=CO[C@@H](OC2OC(CO)C(O)C(O)C2O)[C@H]2[C@@H](C)[C@@H](O)[C@@H](O)[C@@H]12 (stereo not given in full)", "0 (no)"],
  ["OC(Cc1ccc2ccccc2n1)(C(F)(F)F)C(F)(F)F", "0 (no)"],
  ["C1=C2C3=[N+](CCCC3)CC2Cc2ccsc21 (stereo not given)", "0 (no)"],
  ["CC(C)(C)C1CCC2c3c([nH]c4ccccc34)C3C(=O)N(c4ccccc4)C(=O)C3C2C1 (stereo not given)", "0 (no)"],
  ["CCC(=O)N(c1ccccc1)C(C)CN1CCC(O)(c2cccc(C(F)(F)F)c2)CC1 (stereo not given)", "0 (no)"],
  ["N/C(=N\\O)N/N=C/c1cccs1", "0 (no)"],
  ["COC(=O)Nc1nc2cc(NC(=O)c3cccs3)ccc2[nH]1", "0 (no)"],
  ["Cc1ccccc1-n1c(=O)nc2n(-c3ccc(C(C)(C)C)cc3)c3ccccc3cc-2c1=O", "0 (no)"],
  ["COc1c(O)c(OC)c2oc(-c3ccc(O)cc3)c(OC)c(=O)c2c1O", "0 (no)"],
  ["CCCCCCCCCCCCCCCCCCCCCCC(=O)N[C@H]1CCc2cc(OC)c(OC)c(OC)c2-c2ccc(SC)c(=O)cc21", "0 (no)"],
  ["NCP(=O)(O)OCC(=O)O", "0 (no)"],
  ["CS(=O)(=O)O[C@H]1[C@H](O)c2ccccc2[C@@H]1N=[N+]=[N-]", "0 (no)"],
  ["ClCCN1CCO/C1=N/c1ccc2c(c1)CCCC2", "0 (no)"],
  ["CC(=N/NC(=S)N1CCCCCC1)/C(C)=N\\NC(=S)N1CCCCCC1", "0 (no)"],
  ["COc1cc(Cn2c3ccccc3c3cc(C)c4c(c32)C=CC(C)(CCC=C(C)C)O4)cc2c1[nH]c1ccccc12 (stereo not given)", "0 (no)"],
  ["CC12C(=O)CC(CC1=O)C2(C)C", "0 (no)"],
  ["CC(C)(C)n1c(=O)n2c(-c3ccccc3)c(-c3ccccc3)n2c1=O", "0 (no)"],
  ["CCOc1nc(OCC)nc(-c2cccn2-c2ccccc2)n1", "0 (no)"],
  ["O=C(O)c1cnc(-n2[nH]c3c(c2=O)CCCC3)[nH]c1=O", "0 (no)"]
]}

Reference for the values: ChEMBL document CHEMBL1201862
